Plant response rating (0 = no effect, 100 = complete control), Ragweed reference
Test system: common ragweed
Experiment: Test C pre-/postemergence herbicide test
Format: in vivo, Ambrosia elatior
Conditions: 62 g ai/ha; preemergence
Could you keep your reply to the number by itself?

Chem Smiles	Measured Result
CCn1nc(C(C)(C)C)cc1C(=O)Nc1cccc(SC)c1	40
C=CCNC(=O)c1cccc(NC(=O)c2cc(C(C)(C)C)nn2CC)c1	10
CCN(C)C(=O)c1cccc(NC(=O)c2cc(C(C)(C)C)nn2CC)c1	0

Please find the next molecule below.
The molecule `CCCN1CCc2c(NC(=O)c3cc(C(C)(C)C)nn3CC)cccc2C1=O` on common ragweed: Plant response rating (0 = no effect, 100 = complete control), Ragweed was 0

====

Tested on: corn
Assay: Test B pre-/postemergence herbicide test
Assay type: in vivo, Zea mays
Settings: 125 g ai/ha; visual rating, scale 0 (no effect) to 100 (complete control); postemergence
Experimental Endpoint: Corn plant response rating
Could you keep your reply to the number by itself?

// below: answered molecules
Chem Smiles	Tested System	Corn plant response rating
CCNC(=O)c1cccc(NC(=O)c2cc(C3(C)CC3)nn2CC)c1	corn	30
C=CCNC(=O)c1ccc(F)c(NC(=O)c2nn(C(C)(C)C)nc2CC)c1	corn	0

Please find the next molecule below.
The molecule `CCOC(=O)c1cccc(NC(=O)c2cc(C(C)(C)C)nn2C)n1` on corn: Corn plant response rating was 10

====

Tested on: barnyardgrass
Assay: Test B pre-/postemergence herbicide test
Assay type: in vivo, Echinochloa crus-galli
Details: Preemergence, 500 g ai/ha; scale 0 to 100
Decide by Barnyardgrass plant response rating: equal to or exceeding 10 means 1 (yes), less means 0 (no).

These solved cases illustrate the format of a correct answer.
Chem Smiles	Tested System	Cat
CCCCOC(=O)c1cccc(NC(=O)c2cc(C(C)(C)C)nn2CC)c1	barnyardgrass	0 (no)
C=Cn1nc(C(C)(C)C)cc1C(=O)Nc1cccc(C(=O)NCC)c1	barnyardgrass	1 (yes)
CCN(CC)C(=O)c1cc(NC(=O)c2cc(C(C)(C)C)nn2CC)ccc1F	barnyardgrass	1 (yes)
C=CCNC(=O)c1cccc(NC(=O)c2cc(C(C)(C)C)nn2CC)c1	barnyardgrass	1 (yes)

## Input # check: Barnyardgrass plant response rating of `CCOC(=O)c1cccc(NC(=O)c2cc(C(C)(C)C)nn2CC)c1C` is greater than or equal to 10
## Output 1 (yes)

====

Plant response rating, Crabgrass, Large reference
System: large crabgrass
Assay: Test C pre-/postemergence herbicide test
Type: in vivo, Digitaria sanguinalis
Details: 250 g ai/ha; scale 0 to 100 (0 no effect, 100 complete control); visual, 12 to 14 days; preemergence
Could you keep your reply to the number by itself?

// below: answered compounds
Compound	Plant response rating, Crabgrass, Large
CCCN1CCc2c(NC(=O)c3cc(C(C)(C)C)nn3CC)cccc2C1=O [Compound 65]	80
CCn1nc(C(C)(C)C)cc1C(=O)Nc1cccc(C(N)=O)n1 [Compound 162]	80
CCn1nc(C(C)(C)C)cc1C(=O)Nc1cccc(SC(F)(F)F)c1 [Compound 130]	95

GET /value?item= CCn1nc(C(C)(C)C)cc1C(=O)Nc1cccc2c1CCN(C1CC1)C2=O [Compound 64] &field=Plant response rating, Crabgrass, Large returns 70

GET /value?item= C#CCNC(=O)c1cccc(NC(=O)c2cc(C(C)(C)C)nn2CC)c1 [Compound 47] &field=Plant response rating, Crabgrass, Large returns 100

GET /value?item= C#CCn1nc(C(C)(C)C)cc1C(=O)Nc1cccc(C(=O)NCC)c1 [Compound 50] &field=Plant response rating, Crabgrass, Large returns 20
